Data provenance is ChEMBL document CHEMBL3774328.

Form field: fold change (FC) (one value per entry).
Target: ATP-dependent translocase ABCB1 (Homo sapiens, UniProt P08183)
Sequence (P08183 whole entry): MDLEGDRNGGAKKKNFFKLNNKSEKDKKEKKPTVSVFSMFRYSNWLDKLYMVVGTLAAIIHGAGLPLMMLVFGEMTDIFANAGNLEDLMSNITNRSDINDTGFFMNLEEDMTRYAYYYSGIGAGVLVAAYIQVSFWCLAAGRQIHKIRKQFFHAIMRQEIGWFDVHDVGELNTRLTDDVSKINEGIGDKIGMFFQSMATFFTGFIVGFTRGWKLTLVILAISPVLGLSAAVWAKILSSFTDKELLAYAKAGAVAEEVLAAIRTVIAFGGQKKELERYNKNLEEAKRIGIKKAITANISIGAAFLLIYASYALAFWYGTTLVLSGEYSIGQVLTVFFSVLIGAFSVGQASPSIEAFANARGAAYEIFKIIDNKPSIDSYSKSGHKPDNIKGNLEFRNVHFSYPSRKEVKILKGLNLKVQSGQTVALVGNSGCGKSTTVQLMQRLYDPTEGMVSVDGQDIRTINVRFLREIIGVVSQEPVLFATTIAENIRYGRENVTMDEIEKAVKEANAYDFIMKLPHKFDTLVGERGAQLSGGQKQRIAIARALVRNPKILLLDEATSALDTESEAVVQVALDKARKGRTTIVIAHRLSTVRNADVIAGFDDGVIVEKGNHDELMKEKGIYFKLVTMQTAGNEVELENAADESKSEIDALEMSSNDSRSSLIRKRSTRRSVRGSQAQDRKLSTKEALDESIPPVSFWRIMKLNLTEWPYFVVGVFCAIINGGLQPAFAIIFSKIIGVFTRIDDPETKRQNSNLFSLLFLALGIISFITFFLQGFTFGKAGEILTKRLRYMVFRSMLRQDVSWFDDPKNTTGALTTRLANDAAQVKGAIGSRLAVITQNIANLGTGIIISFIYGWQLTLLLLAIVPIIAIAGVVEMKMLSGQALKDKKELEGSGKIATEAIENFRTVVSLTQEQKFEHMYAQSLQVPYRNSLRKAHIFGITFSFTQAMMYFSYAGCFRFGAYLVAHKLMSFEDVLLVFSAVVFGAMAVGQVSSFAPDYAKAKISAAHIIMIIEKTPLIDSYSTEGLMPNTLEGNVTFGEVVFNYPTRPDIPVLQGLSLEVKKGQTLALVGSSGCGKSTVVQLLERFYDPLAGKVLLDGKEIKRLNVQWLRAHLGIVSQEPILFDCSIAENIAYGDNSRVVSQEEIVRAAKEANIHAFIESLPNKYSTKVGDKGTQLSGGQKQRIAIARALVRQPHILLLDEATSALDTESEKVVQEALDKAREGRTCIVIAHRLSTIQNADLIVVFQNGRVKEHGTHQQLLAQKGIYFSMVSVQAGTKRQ
Test: Inhibition of human MDR1 expressed in mouse NIH/3T3 cells assessed as reduction in vinblastine IC50 at 1 uM by MTT assay
Type: cell-based
Settings: nih3t3, 1 µM

compound | fold change (FC)
CC(=O)O[C@H]1CC[C@](C)(O)[C@]23OC(C)(C)[C@H]([C@H](OC(=O)/C=C/c4ccccc4)[C@H](OC(=O)c4ccccc4)[C@]12C)[C@H]3OC(=O)CCC(=O)N(C(=O)NC1CCCCC1)C1CCCCC1 | 27.4
CC(=O)O[C@H]1CC[C@](C)(OC(=O)CNCC(C)C)[C@]23OC(C)(C)[C@H]([C@H](OC(=O)/C=C/c4ccccc4)[C@H](OC(=O)c4ccccc4)[C@]12C)[C@H]3OC(C)=O | 20.6
CC(=O)O[C@H]1CC[C@](C)(O)[C@]23OC(C)(C)[C@H]([C@H](OC(=O)/C=C/c4ccccc4)[C@H](OC(=O)c4ccccc4)[C@]12C)[C@H]3OC(=O)CCC(=O)OC1CCCCC1O (stereo partly drawn) | 9.9
